The values you see were collected from ChEMBL document CHEMBL3507680.

EXPERIMENT SUMMARY: Human HepG2 cell viability assay in 384 well format
Assay type: toxicity, cell-based
Design: dose 125 nL, time 70.5 hour; concentration not given beside the values
TEST CONTEXT: HepG2 cells, read-out: Inhibition
cytotoxicity at 70.5 h: recorded values
Dear colleague, please return just the value in %, with no unit written.

Consider the following illustrative entries.
| COMPOUND | cytotoxicity at 70.5 h [%] |
| --- | --- |
| CCC(O)CN1CCN(C(=O)c2cccn2Cc2cccnc2)CC1 (stereo unspecified) | 17.3 |
| CN(C)c1nccc(C2CN(C(=O)CO)C2)n1 | -4.15 |
| COCCc1ncc(CN2CCCC(C(=O)c3ccccc3)C2)cn1 (stereo unspecified) | -26 |
| O=C(Nc1cccc2c1CCCC2)c1cccc(CN2CC[C@H](O)C2)c1 | -4.36 |
| NC(=O)COc1ccc(CN2CCC(O)(CN3CCCCC3)C2)cc1Cl (stereo unspecified) | -12.1 |
| O=C(Cc1cccs1)NS(=O)(=O)c1cccc2cnccc12 | -116 |

Task: Could you tell me which cytotoxicity at 70.5 h is on file for Cc1ccc(N2C(=O)N[C@@H]3CCN(C(=O)C4CCCC4)[C@@H]3C2=O)cc1 ?
Result: -13.1

---

EXPERIMENT SUMMARY: Human HepG2 cell viability assay in 384 well format
Type: toxicity, cell-based
Set-up: dose 125 nL, time 70.5 hour; concentration not given beside the values
TEST CONTEXT: HepG2 cells, read-out: Inhibition
Some compounds, each annotated with its measured cytotoxicity at 70.5 h.
Answer by giving the amount and then stating its unit.

| COMPOUND | cytotoxicity at 70.5 h |
| --- | --- |
| COCCN1CCN(C(=O)N2CCCC2)Cc2ccc(C)nc21 | 24.9% |
| O=C(CCc1ccc(Cl)cc1)N1CCC(O)(C(F)(F)F)C1 (stereo not drawn) | -6.2% |
| CCOCCCC(=O)N(C)C(c1cccc(F)c1)c1ccccn1 (stereo not drawn) | -23.5% |

Let us move to another entry and its cytotoxicity at 70.5 h.
Task: I'd like to know its cytotoxicity at 70.5 h. The compound in question is COCCCn1ccnc1-c1cnc(OC)nc1
Result: -9.97%

---

As shown below, each of these compounds has a reported cytotoxicity at 70.5 h value.
EXPERIMENT SUMMARY: Human HepG2 cell viability assay in 384 well format
Type: toxicity, cell-based
Parameters: dose 125 nL, time 70.5 hour; concentration not given beside the values
TEST CONTEXT: HepG2 cells, read-out: Inhibition
Please state the figure in %; there is no need to write the unit.

| COMPOUND | MEASUREMENT UNIT | cytotoxicity at 70.5 h |
| --- | --- | --- |
| CC(C)(CN1CCC(Cc2ccc(C(=O)O)cc2)C1)N1CCOCC1 (configuration not stated) | % | -12.2 |

Task: Need cytotoxicity at 70.5 h, item CCC(NCCn1cccn1)C(=O)Nc1cc(C)on1 (configuration not stated)
Result: 24.9

Task: Entry COCc1ccccc1C(=O)NCC(c1c(F)cccc1F)N(C)C (configuration not stated) : reported cytotoxicity at 70.5 h = ?
Result: 0.326

Task: Request the reported cytotoxicity at 70.5 h associated with CC(C)CC(=O)NS(=O)(=O)c1ccc2c(c1)OCCCO2
Result: -8.04

Task: cytotoxicity at 70.5 h for Cc1noc(C2CCC3(CCN(C(=O)c4ncccn4)CC3)O2)n1 (configuration not stated) ?
Result: 2.54

Task: Give its cytotoxicity at 70.5 h value. Item: CN1C(=O)C(C)(C)COc2cc(NS(=O)(=O)Cc3ccccc3)ccc21
Result: 9.19

Task: Which cytotoxicity at 70.5 h value belongs to Cc1cc(CN(C)C(=O)NCc2cccc(N3CCCC3=O)c2)no1 ?
Result: -25.6

Task: // lookup cytotoxicity at 70.5 h for Cc1cc(F)ccc1OC1(C(=O)O)CCN(Cc2c[nH]cn2)CC1
Result: -4.85

---

EXPERIMENT SUMMARY: Human HepG2 cell viability assay in 384 well format
Format: toxicity, cell-based
Design: dose 125 nL, time 70.5 hour; concentration not given beside the values
TEST CONTEXT: HepG2 cells, read-out: Inhibition
Overview of reported cytotoxicity at 70.5 h across a group of compounds:
# unit: % | format: bare number

Task: Look up cytotoxicity at 70.5 h for this compound: NCc1cn(CC2CCCN(C(=O)NCCc3ccc(F)cc3)C2)nn1 (centres undefined)
Result: 22.7

Task: Need cytotoxicity at 70.5 h, item COCCNC(=O)c1cc(-c2ccc3c(c2)CCO3)n[nH]1
Result: 15.5

Task: # lookup: cytotoxicity at 70.5 h of CS(=O)(=O)CCC(=O)Nc1cc(Cl)c(Cl)cn1
Result: 26.6

Task: Return reported cytotoxicity at 70.5 h; argument: Cc1cnc(N2CCOC(C(=O)NCc3ccccc3)C2)s1 (centres undefined)
Result: -15.2

Task: Quick check: cytotoxicity at 70.5 h of N#Cc1ccc(CNc2ncc(C#N)cc2Cl)cc1 ?
Result: 0.2

Task: # query: cytotoxicity at 70.5 h of entry O=C(NCc1cc[nH]n1)NCC(c1ccccc1Cl)N1CCCC1 (centres undefined)
Result: -14.6

Task: Look up cytotoxicity at 70.5 h for this compound: NC(=O)NC(CC(=O)NCCc1cccc(F)c1)c1cccs1 (centres undefined)
Result: 17

Task: For the compound COCC1CN(Cc2ccoc2)Cc2nnn(C)c21 (centres undefined) , what cytotoxicity at 70.5 h is on record?
Result: -13.7

---

EXPERIMENT SUMMARY: Human HepG2 cell viability assay in 384 well format
Assay type: toxicity, cell-based
Design: dose 125 nL, time 70.5 hour; concentration not given beside the values
TEST CONTEXT: HepG2 cells, read-out: Inhibition
This section presents compounds with their documented cytotoxicity at 70.5 h values.
Numbers only here, please. The scale is %.

Previously resolved entries follow.
| COMPOUND | OBSERVED RESULT |
| --- | --- |
| Cc1nccc(N[C@H]2CN(C(=O)C3(C#N)CCOCC3)C[C@@H]2C(C)C)n1 | 12 |
| Cc1n[nH]c(C2CN(CCNC3CCCCC3)CCO2)n1 (stereo unspecified) | 3.49 |
| COc1ccccc1CN1CCC(O)(Cn2ccc3ncccc32)CC1 | -2.09 |
| O=C(c1ncccn1)N1C[C@@H]2COC[C@]2(c2nnc(C3CC3)o2)C1 | 9.47 |
| COc1ccc(C(=O)N2CCC(Oc3cccc(C)c3)(C(=O)O)CC2)o1 | 5.99 |

# context switch: different compound, same cytotoxicity at 70.5 h
Task: Value lookup for cytotoxicity at 70.5 h; key = Cc1noc(CN2CCN(CCS(C)(=O)=O)CC2)n1
Result: -2.73

---

EXPERIMENT SUMMARY: Human HepG2 cell viability assay in 384 well format
Assay type: toxicity, cell-based
Parameters: dose 125 nL, time 70.5 hour; concentration not given beside the values
TEST CONTEXT: HepG2 cells, read-out: Inhibition
The compounds listed here are annotated with their cytotoxicity at 70.5 h.
Give just the number in %; leave the unit off.

Study these solved cases before continuing.
| COMPOUND | OBSERVED RESULT |
| --- | --- |
| Cc1nc(NC(=O)CNC(=O)c2c(F)cccc2Cl)n[nH]1 | -6.51 |
| O=C(NCCNc1cnccn1)N1CCCC(N2CCCC2)C1 (configuration not stated) | 3.31 |
| Cc1ccc(CCNC(=O)Cn2nc(C)n(Cc3ccccc3)c2=O)o1 | 19.8 |
| CNc1nc2c(s1)C(c1ccc(Cl)cc1Cl)CC(=O)N2 (configuration not stated) | -5.21 |
| CCc1cnc(C)nc1NC(C)C(=O)Nc1cc(F)ccc1C (configuration not stated) | 22.4 |

Task: Record request: cytotoxicity at 70.5 h value, item O=C1CC(NS(=O)(=O)c2ccccc2)CN1Cc1ccccc1 (configuration not stated)
Result: -5.96

Task: For CCn1c(C)nnc1SCCNC(=O)CC1CCc2ccccc21 (configuration not stated) , what is its reported cytotoxicity at 70.5 h?
Result: -18.5

Task: Value lookup for cytotoxicity at 70.5 h; key = CCC(CO)N(Cc1cccs1)C(=O)Cc1ccncc1 (configuration not stated)
Result: -8.11

Task: I'd like to know its cytotoxicity at 70.5 h. The compound in question is COCC(O)CN(C)c1ccnc2cc(F)ccc12 (configuration not stated)
Result: 13.1

Task: Name the recorded cytotoxicity at 70.5 h for Cc1ccsc1C(=O)NC1CCN(c2cnn(C)c2)C1=O (configuration not stated) .
Result: 17.9

Task: # cytotoxicity at 70.5 h lookup, item Cc1ccc(CCc2nc(C3CCOC3)no2)o1 (configuration not stated)
Result: 6.82

Task: If you can, please state the reported cytotoxicity at 70.5 h value of CCS(=O)(=O)N1CC[C@H]2[C@H]1CC(=O)N2Cc1csc(C)n1 .
Result: -1.34
